Target: LATS2 (Homo sapiens, UniProt Q9NRM7)
Sequence (Q9NRM7 1-1088): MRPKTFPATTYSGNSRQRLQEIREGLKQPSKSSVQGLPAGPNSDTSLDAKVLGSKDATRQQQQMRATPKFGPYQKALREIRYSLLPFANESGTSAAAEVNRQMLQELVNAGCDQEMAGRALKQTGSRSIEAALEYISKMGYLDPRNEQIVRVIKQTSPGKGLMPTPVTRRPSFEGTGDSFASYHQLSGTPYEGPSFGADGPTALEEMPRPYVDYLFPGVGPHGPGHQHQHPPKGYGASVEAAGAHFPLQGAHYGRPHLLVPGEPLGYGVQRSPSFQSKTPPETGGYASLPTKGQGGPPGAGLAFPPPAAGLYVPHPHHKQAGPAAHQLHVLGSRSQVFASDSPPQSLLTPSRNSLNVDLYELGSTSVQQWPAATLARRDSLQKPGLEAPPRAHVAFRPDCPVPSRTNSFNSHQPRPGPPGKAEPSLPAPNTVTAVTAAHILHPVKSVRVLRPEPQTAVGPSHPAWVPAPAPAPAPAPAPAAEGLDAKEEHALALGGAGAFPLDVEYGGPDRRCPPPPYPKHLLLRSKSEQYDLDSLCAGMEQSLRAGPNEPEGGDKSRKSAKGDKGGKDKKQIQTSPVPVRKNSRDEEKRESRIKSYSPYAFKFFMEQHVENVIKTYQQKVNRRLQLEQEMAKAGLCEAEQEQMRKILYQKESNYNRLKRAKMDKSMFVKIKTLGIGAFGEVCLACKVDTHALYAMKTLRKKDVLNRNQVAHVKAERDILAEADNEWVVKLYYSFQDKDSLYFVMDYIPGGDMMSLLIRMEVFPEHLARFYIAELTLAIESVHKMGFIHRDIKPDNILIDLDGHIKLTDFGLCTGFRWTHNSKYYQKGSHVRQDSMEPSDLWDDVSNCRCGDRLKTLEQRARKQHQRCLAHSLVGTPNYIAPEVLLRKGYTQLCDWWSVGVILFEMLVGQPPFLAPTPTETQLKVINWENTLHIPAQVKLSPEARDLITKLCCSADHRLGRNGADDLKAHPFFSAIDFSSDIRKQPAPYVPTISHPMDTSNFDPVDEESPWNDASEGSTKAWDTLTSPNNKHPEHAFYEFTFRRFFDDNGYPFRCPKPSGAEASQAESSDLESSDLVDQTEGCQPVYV
Assay: RBC HotSpot kinase assay (33P-ATP, P81 filter-binding), LATS2
Format: biochemical
Conditions: Table 28, biochemical kinase assay; read-out: LATS2 IC50
experimentalEndpoint: IC50 (nM)

- O=C([C@@H]1CCCN1)N1CCC(c2ccc(-c3ccnc4[nH]cc(F)c34)cc2Cl)CC1: 15.5

[a] Fc1ccc(CNCc2ccc(-c3ccnc4[nH]ccc34)cc2Cl)cc1
[b] Cc1cc(-c2ccnc3[nH]cc(F)c23)ncc1[C@@]1(O)[C@H](C)CN(C2CCC2)C[C@@H]1C
[c] NCc1ccc(-c2ccnc3[nH]cc(F)c23)cc1
Query string: Rank by IC50 (largest to smallest). Answer format: list of labels, ordered as asked.
Result string: a, b, c
(a: 59.2 nM, b: 16.1 nM, c: 8.4 nM)

###

Molecular target: LATS1 Kinase-NanoLuc fusion in HEK-293 cells (Homo sapiens)
Construct: host or cells: HEK-293
Sequence (O95835 1-1130): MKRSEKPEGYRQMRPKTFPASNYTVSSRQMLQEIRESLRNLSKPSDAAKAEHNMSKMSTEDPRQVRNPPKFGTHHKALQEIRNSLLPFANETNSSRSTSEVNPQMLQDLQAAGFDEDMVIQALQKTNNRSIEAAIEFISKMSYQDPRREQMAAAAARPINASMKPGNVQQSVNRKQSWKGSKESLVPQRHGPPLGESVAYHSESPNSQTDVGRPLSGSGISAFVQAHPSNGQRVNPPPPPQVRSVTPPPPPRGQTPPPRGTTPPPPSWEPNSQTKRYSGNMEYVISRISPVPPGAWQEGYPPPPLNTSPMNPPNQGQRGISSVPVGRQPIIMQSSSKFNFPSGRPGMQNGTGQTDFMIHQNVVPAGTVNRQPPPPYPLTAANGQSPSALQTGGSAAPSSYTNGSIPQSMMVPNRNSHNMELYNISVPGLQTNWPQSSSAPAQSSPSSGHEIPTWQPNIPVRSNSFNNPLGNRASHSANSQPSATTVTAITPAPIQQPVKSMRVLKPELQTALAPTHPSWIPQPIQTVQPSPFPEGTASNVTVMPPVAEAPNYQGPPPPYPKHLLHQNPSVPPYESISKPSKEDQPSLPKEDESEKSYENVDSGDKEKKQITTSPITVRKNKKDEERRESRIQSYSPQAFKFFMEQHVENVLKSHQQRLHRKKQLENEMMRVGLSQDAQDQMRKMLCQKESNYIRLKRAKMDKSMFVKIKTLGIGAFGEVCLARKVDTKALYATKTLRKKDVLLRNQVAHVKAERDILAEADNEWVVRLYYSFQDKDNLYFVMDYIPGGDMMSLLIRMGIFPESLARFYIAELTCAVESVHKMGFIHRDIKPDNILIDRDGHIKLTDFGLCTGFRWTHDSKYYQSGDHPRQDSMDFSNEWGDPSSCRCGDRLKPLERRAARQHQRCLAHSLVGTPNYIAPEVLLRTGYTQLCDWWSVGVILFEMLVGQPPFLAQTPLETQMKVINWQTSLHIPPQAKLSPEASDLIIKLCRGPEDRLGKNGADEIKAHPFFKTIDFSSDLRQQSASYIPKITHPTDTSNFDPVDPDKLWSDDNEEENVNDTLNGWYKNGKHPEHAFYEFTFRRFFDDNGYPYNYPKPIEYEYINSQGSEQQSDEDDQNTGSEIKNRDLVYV
Assay: NanoBRET target engagement assay in transfected HEK-293 cells, LATS1
Type: cell-based
Conditions: Table 32, NanoBRET, HEK-293 cells; read-out: LATS1 (Cellular) IC50
pIC50: −log10 of the molar value.
experimentalEndpoint: pIC50

• NCC(O)(c1ccc(Cl)cc1)c1ccc(-c2ccnc3[nH]cc(-c4ccccc4)c23)cc1 (centres unmarked) = 6.55
• COC(=O)c1c[nH]c2nccc(-c3ccc(C(O)(CN)c4ccc(Cl)cc4)cc3)c12 (centres unmarked) = 5.70
• NCC(O)(c1ccc(Cl)cc1)c1ccc(-c2ccnc3[nH]ccc23)cc1 (centres unmarked) = 6.91

[1] NCC(O)(c1ccc(Cl)cc1)c1ccc(-c2ccnc3[nH]cc(Br)c23)cc1 (centres unmarked)
[2] NCC(=O)NCC(O)(c1ccc(Cl)cc1)c1ccc(-c2ccnc3[nH]cc(Cl)c23)cc1 (centres unmarked)
[3] NCC(O)(c1ccc(Cl)cc1)c1ccc(-c2ccnc3[nH]cc(F)c23)cc1 (centres unmarked)
[4] NCC(O)(c1ccc(Cl)cc1)c1ccc(-c2ccnc3[nH]cc(-c4cccnc4)c23)cc1 (centres unmarked)
[5] NCC(O)(c1ccc(Cl)cc1)c1ccc(-c2ccnc3[nH]cc(Br)c23)nc1 (centres unmarked)
Query string: Rank by pIC50 (largest to smallest). Answer format: list of labels, ordered as asked.
Result string: 1, 5, 3, 2, 4
